This collection of values is drawn from patent US20230321186A1.

System: C. albicans SC5314
Assay: RT-qPCR analysis of C. albicans gene expression
Format: cell-based, Candida albicans
Settings: broader range of genes, six synthetic glycans, FIG. 9E
Description: For RNA extraction from C. albicans grown in the presence or absence of mucin glycans, 100 μL of RPMI or 0.1% w/v MUC5AC glycans in RPMI were inoculated with a 1:50 dilution of an overnight culture of strain SC5314 and incubated at 37° C. for the time indicated. […] The integrity of the total RNA was assessed using an Agilent 2100 Bioanalyzer (Agilent Technologies, Santa Clara, CA). rRNA was removed using the Ribo-Zero® rRNA Removal Kit (Yeast; Epicentre). […]
PROPERTY: suppression of filamentation-associated genes

INPUT: Could you tell me which suppression of filamentation-associated genes is on file for CO[C@H]1O[C@H](CO[C@@H]2O[C@H](CO)[C@@H](O[C@@H]3O[C@H](CO)[C@H](O)[C@H](O)[C@H]3O)[C@H](O)[C@H]2NC(C)=O)[C@H](O)[C@H](O[C@@H]2O[C@H](CO)[C@H](O)[C@H](O)[C@H]2O)[C@H]1NC(C)=O ?
OUTPUT: strongest suppression

INPUT: Could you tell me which suppression of filamentation-associated genes is on file for CO[C@H]1O[C@H](CO)[C@H](O)[C@H](O[C@@H]2O[C@H](CO)[C@H](O)[C@H](O)[C@H]2O)[C@H]1NC(C)=O ?
OUTPUT: strongest suppression

INPUT: Could you tell me which suppression of filamentation-associated genes is on file for CO[C@H]1O[C@H](CO)[C@H](O)[C@H](O[C@@H]2O[C@H](CO)[C@H](O)[C@H](O)[C@H]2O[C@@H]2O[C@@H](C)[C@@H](O)[C@@H](O)[C@@H]2O)[C@H]1NC(C)=O ?
OUTPUT: strongest suppression
